# Test system: MOLM14 D835Y cells
# experiment.notes: MOLM14 D835Y cell viability assay (Cell Titer Glo)
# Type: cell-based
# condition.details: Homo sapiens, MOLM-14, 48 h, cell viability, Cell Titer Glo, 48 hours; read-out: MOLM14 D835Y IC50
value.kind: log10 of IC50 (log10 of the value in µM)

{"compound": "COc1cc2ncc(-c3nc(N[C@H]4CNCC[C@@H]4F)ncc3F)n2nc1C1CC1", "target.or.test.system": "MOLM14 D835Y cells", "value.reported": -3.00}
{"compound": "Fc1cnc(N[C@H]2CNCC[C@@H]2F)nc1-c1cnc2cnc(C3COC3)cn12 [Compound 117a]", "target.or.test.system": "MOLM14 D835Y cells", "value.reported": -0.80}
{"compound": "COc1cc2ncc(-c3ccnc(N[C@H]4CNCC[C@@H]4F)n3)n2nc1C1CC(C)(C)C1 [Compound 82a]", "target.or.test.system": "MOLM14 D835Y cells", "value.reported": -0.90}
{"compound": "COc1cc2ncc(-c3nc(N[C@H]4CNC[C@@H]4F)ncc3F)n2nc1N1CCCC1=O [Compound 107a]", "target.or.test.system": "MOLM14 D835Y cells", "value.reported": -1.10}
{"compound": "CC(O)(c1ccc2ncc(-c3cncc(N[C@H]4CNC[C@@H]4F)n3)n2c1)C(F)(F)F (single isomer, unassigned) [Compound 30a]", "target.or.test.system": "MOLM14 D835Y cells", "value.reported": -0.24}
{"compound": "CC(C)(O)c1cn2c(-c3nc(N[C@@H]4CCCNC4)ncc3F)cnc2cn1 [Compound 99a]", "target.or.test.system": "MOLM14 D835Y cells", "value.reported": -0.85}
{"compound": "COc1cc2ncc(-c3nc(N[C@H]4CNC[C@@H]4F)ncc3F)n2nc1N1CCOCC1 [Compound 119a]", "target.or.test.system": "MOLM14 D835Y cells", "value.reported": -2.40}
{"compound": "CC(C)(O)c1ccc2ncc(-c3nc(N[C@H]4CNCC[C@@H]4F)ncc3F)n2c1 [Compound 46a]", "target.or.test.system": "MOLM14 D835Y cells", "value.reported": -1.48}
{"compound": "COc1cc2ncc(-c3nc(N[C@H]4CNC[C@@H]4F)ncc3F)n2nc1C1CC2(CCC2)C1 [Compound 58a]", "target.or.test.system": "MOLM14 D835Y cells", "value.reported": -1.85}
{"compound": "COc1cc2ncc(-c3nc(N[C@H]4CNCC[C@@H]4F)ncc3F)n2nc1C1CC(C)(C)C1 [Compound 57a]", "target.or.test.system": "MOLM14 D835Y cells", "value.reported": -1.96}
{"compound": "COc1cc2ncc(-c3ccnc(N[C@H]4CNC[C@@H]4F)n3)n2nc1C1COC1 [Compound 95a]", "target.or.test.system": "MOLM14 D835Y cells", "value.reported": -0.95}
{"compound": "COc1cc2ncc(-c3nc(N[C@H]4CNCC[C@@H]4F)ncc3Cl)n2nc1C1CC1 [Compound 103a]", "target.or.test.system": "MOLM14 D835Y cells", "value.reported": -1.15}
{"compound": "COc1cc2ncc(-c3ccnc(N[C@H]4CNC[C@@H]4F)n3)n2nc1C1CC2(CCC2)C1 [Compound 75a]", "target.or.test.system": "MOLM14 D835Y cells", "value.reported": -1.20}
{"compound": "F[C@H]1CCNC[C@@H]1Nc1cncc(-c2cnc3cc(OC4CC4)c(C4CC4)nn23)n1 [Compound 13a]", "target.or.test.system": "MOLM14 D835Y cells", "value.reported": -0.94}
{"compound": "COc1cc2ncc(-c3ccnc(N[C@H]4CNCC[C@@H]4F)n3)n2nc1C1CCO1 (stereo partly drawn) [Compound 109a]", "target.or.test.system": "MOLM14 D835Y cells", "value.reported": -1.55}
{"compound": "F[C@H]1CNC[C@@H]1Nc1cncc(-c2cnc3cc(OC4CC4)c(C4CC4)nn23)n1 [Compound 14a]", "target.or.test.system": "MOLM14 D835Y cells", "value.reported": -1.00}
{"compound": "COc1cc2ncc(-c3ccnc(N[C@H]4CNCC[C@@H]4F)n3)n2nc1C1CC(F)(F)C1 [Compound 19a]", "target.or.test.system": "MOLM14 D835Y cells", "value.reported": -1.29}
{"compound": "COc1cc2ncc(-c3nc(N[C@H]4CNCC[C@@H]4F)ncc3F)n2nc1C1CCC1 [Compound 54a]", "target.or.test.system": "MOLM14 D835Y cells", "value.reported": -3.00}
{"compound": "CC(O)(c1ccc2ncc(-c3ccnc(N[C@H]4CNC[C@@H]4F)n3)n2c1)C(F)(F)F (single isomer, unassigned) [Compound 24a]", "target.or.test.system": "MOLM14 D835Y cells", "value.reported": -1.39}
{"compound": "COc1cc2ncc(-c3ccnc(N[C@@H]4CCCNC4)n3)n2nc1N1CC(F)(F)C1 [Compound 17a]", "target.or.test.system": "MOLM14 D835Y cells", "value.reported": -0.74}
{"compound": "COc1cc2ncc(-c3nc(N[C@@H]4CCCNC4)ncc3F)n2nc1N1CCOCC1 [Compound 120a]", "target.or.test.system": "MOLM14 D835Y cells", "value.reported": -2.30}
{"compound": "COc1cc2ncc(-c3ccnc(N[C@@H]4CCCNC4)n3)n2nc1C(C)(C)O [Compound 42a]", "target.or.test.system": "MOLM14 D835Y cells", "value.reported": -0.44}
{"compound": "COc1cc2ncc(-c3nc(N[C@H]4CNCC[C@@H]4F)ncc3F)n2nc1C1CC(F)(F)C1 [Compound 49a]", "target.or.test.system": "MOLM14 D835Y cells", "value.reported": -1.82}
{"compound": "COc1cc2ncc(-c3ccnc(N[C@H]4CNCC[C@@H]4F)n3)n2nc1C1COC1 [Compound 97a]", "target.or.test.system": "MOLM14 D835Y cells", "value.reported": -1.49}
{"compound": "COc1cc2ncc(-c3nc(N[C@H]4CNC[C@@H]4F)ncc3F)n2nc1C1COC1 [Compound 93a]", "target.or.test.system": "MOLM14 D835Y cells", "value.reported": -1.89}
{"compound": "COc1cc2ncc(-c3ccnc(N[C@@H]4CCCNC4)n3)n2nc1C1CCC1 [Compound 78a]", "target.or.test.system": "MOLM14 D835Y cells", "value.reported": -1.54}
{"compound": "COc1cc2ncc(-c3ccnc(N[C@H]4CNC[C@@H]4F)n3)n2nc1N1CC(F)(F)C1 [Compound 16a]", "target.or.test.system": "MOLM14 D835Y cells", "value.reported": -0.74}

----------
Measured pKd values are reported for all entries that follow.
# target.or.test.system: FLT3 D835V (Homo sapiens, UniProt P36888, D835V)
# experiment.notes: DiscoverX KINOMEscan competition binding assay, FLT3 D835V
# condition.details: 11-point 3-fold dilution
pKd: −log10 of the molar value.

{"compound": "CC(C)(O)c1ccc2ncc(-c3nc(N[C@H]4CNCC[C@@H]4F)ncc3F)n2c1 [Compound 46a]", "pKd": 9.28}
{"compound": "COc1cc2ncc(-c3nc(N[C@H]4CNCC[C@@H]4F)ncc3F)n2nc1C1COC1 [Compound 92a]", "pKd": "> 9.77"}
{"compound": "COc1cc2ncc(-c3nc(N[C@H]4CNCC[C@@H]4F)ncc3F)n2nc1C1CC1", "pKd": "> 9.77"}
{"compound": "COc1cc2ncc(-c3nc(N[C@H]4CNCC[C@@H]4F)ncc3F)n2nc1N1CCCS1(=O)=O [Compound 112a]", "pKd": "> 9.77"}

----------
# System: MOLM14 D835Y cells
# experiment.notes: MOLM14 D835Y cell viability assay (Cell Titer Glo)
# Type: cell-based
# condition.details: Homo sapiens, MOLM-14, 48 h, cell viability, Cell Titer Glo, 48 hours; read-out: MOLM14 D835Y IC50
Note: every record was labeled by where its IC50 sits among low (below 20 nM), intermediate (20 nM to below 40 nM), high (40 nM or more)

{"compound": "COc1cc2ncc(-c3nc(N[C@H]4CNCC[C@@H]4F)ncc3F)n2nc1C1CC2(CCC2)C1 [Compound 60a]", "class": "low"}
{"compound": "c1ncc(-c2cnc3cc(OC4CC4)c(C4CC4)nn23)nc1N[C@@H]1CCCNC1 [Compound 15a]", "class": "high"}
{"compound": "CC(O)(c1ccc2ncc(-c3ccnc(N[C@H]4CNCC[C@@H]4F)n3)n2c1)C(F)(F)F (single isomer, unassigned) [Compound 25a]", "class": "intermediate"}
{"compound": "COc1cc2ncc(-c3nc(N[C@@H]4CCCNC4)ncc3F)n2nc1N1CCCS1(=O)=O [Compound 110a]", "class": "low"}
{"compound": "COc1cc2ncc(-c3ccnc(N[C@H]4CNC[C@@H]4F)n3)n2nc1C1CCCC1 [Compound 83a]", "class": "low"}
{"compound": "COc1cc2ncc(-c3ccnc(N[C@H]4CNC[C@@H]4F)n3)n2nc1C(C)(C)O [Compound 41a]", "class": "high"}
{"compound": "COc1cc2ncc(-c3nc(N[C@@H]4CCCNC4)ncc3F)n2nc1C1CCC1 [Compound 53a]", "class": "low"}
{"compound": "COc1cc2ncc(-c3ccnc(N[C@H]4CNC[C@@H]4F)n3)n2nc1C1CCCCC1 [Compound 86a]", "class": "low"}
{"compound": "COc1cc2ncc(-c3nc(N[C@H]4CNC[C@@H]4F)ncc3F)n2nc1C1CC(C)(C)C1 [Compound 55a]", "class": "intermediate"}
{"compound": "COc1cc2ncc(-c3ccnc(N[C@H]4CNCC[C@@H]4F)n3)n2nc1C(C)(C)O [Compound 40a]", "class": "high"}
{"compound": "COc1cc2ncc(-c3ccnc(N[C@H]4CNCC[C@@H]4F)n3)n2nc1[C@H]1C[C@@H](O)C1 [Compound 127a]", "class": "low"}
{"compound": "CC(C)(O)c1cn2c(-c3nc(N[C@H]4CNC[C@@H]4F)ncc3F)cnc2cn1 [Compound 98a]", "class": "high"}
{"compound": "COc1cc2ncc(-c3nc(N[C@@H]4CCCNC4)ncc3F)n2nc1C1CCCCC1 [Compound 65a]", "class": "low"}
{"compound": "COc1cc2ncc(-c3nc(N[C@H]4CNC[C@@H]4F)ncc3F)n2nc1C1CC(F)(F)C1 [Compound 50a]", "class": "intermediate"}
{"compound": "COc1cc2ncc(-c3cncc(N[C@@H]4CCCNC4)n3)n2nc1C1CC(F)(F)C1 [Compound 72a]", "class": "high"}
